Molecular target: T1, recombinant human CXCL11/I-TAC (human, UniProt O14625 22-94, biotinylated in the ELISA; 125I label in the radioligand assays)
T1 sequence (looked up): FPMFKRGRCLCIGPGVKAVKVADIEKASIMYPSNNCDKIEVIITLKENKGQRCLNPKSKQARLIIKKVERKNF
Assay: inhibition of 125I-CXCL11 binding to hCXCR3 (HEK293T cells), 10x diluted periplasm
measuredAttribute: binding result

| binder | observedValue |
| --- | --- |
| Nanobody 11C7 (VHH, llama VHH against CXCL11; not shown: C-terminal c-myc tag and (His)6 tag coded by the vector) VHH: EVQLVESGGGLVQAGGSLRLSCAAASGGTFTKQTISWFRQAPGKDREFVAAQWWSGLSTYFAEYADSVKGRFTISRDNAKNTAYLEMNSLKFEDTAVYYCAAGLGVVRTLIRRASSYDYWGQGTQVTVSS | binds |
| Nanobody 11D1 (VHH, llama VHH against CXCL11; not shown: C-terminal c-myc tag and (His)6 tag coded by the vector) VHH: EVQLVESGGGLVQAGGSLRLSCAASGFTLNDYAIGWFRQAPGKEREGVSLISSDDGSTYYADSVKGRFTISSDNAKNTVYLQMNSLKPEDTAVYYCAAAQGLLLLSLWVPTQYDYWGQGTQVTVSS | binds |
| Nanobody 11D10 (VHH, llama VHH against CXCL11; not shown: C-terminal c-myc tag and (His)6 tag coded by the vector) VHH: EVQLVESGGGLVQAGGSLRLSCAASGFTIDDYAIGWFRQAPGKEREGVSCISSSDGSTYYADSVKGRFTISSDNAKNTVYLQMNSLKPEDTAVYYCAAAQGLVVTEMFVGRSYDYWGQGTQVTVSS | binds |
| Nanobody 11F7 (VHH, llama VHH against CXCL11; not shown: C-terminal c-myc tag and (His)6 tag coded by the vector) VHH: EVQLVESGGGLVQAGGSLRLSCAASGGTFTKQTMGWFRQTPGKDREFVAVQWWTGLSTYSAEYADSVKGRFTISRDNAKNTAYLQMNSLKFEDTAVYYCAAGLGVVRTFIRRASSYDDWGQGTQVTVSS | binds |
| Nanobody 11E5 (VHH, llama VHH against CXCL11; not shown: C-terminal c-myc tag and (His)6 tag coded by the vector) VHH: EVQLVESGGGLVQAGGSLRLSCAASGFTFDDYAIGWFRQAPGKEREGVSWISSSDKDTYYADSVKGRFTISSDNAKNTVYLQMNSLKPEDTAVYYCAAGAGLLIATIWTTQMYDYWGQGTQVTVSS | binds |

Enquiry: Which value of binding result has been reported for Nanobody 11G8 (VHH, llama VHH against CXCL11; not shown: C-terminal c-myc tag and (His)6 tag coded by the vector) VHH: EVQLVESGGGLVQAGGSLRLSCAASGRTFSSYAMGWFRQAPGKEQEFVAAISWSGGSTYYADSVKGRFTISRDNAKNTVYLQMNSLKPEDTAVYYCAAHDVDDDESPYYSGGYYRALYDYWGQGTQVTVSS in the records?
Return: binds

Enquiry: I'd like to know its binding result. The binder in question is Nanobody 11D5 (VHH, llama VHH against CXCL11; not shown: C-terminal c-myc tag and (His)6 tag coded by the vector) VHH: EVQLVESGGGLVQPGGSLRLSCAASRSGLSINAMGWFRQAPGKQRELVASITRGGPTIYADSVKGRFTISGDNAKNTVYLQMNSLKPEDTAVYYCNALIDYGLGFPIEYWGQGTQVTVSS
Return: binds

Enquiry: // query binding result value for entry Nanobody 11B8 (VHH, llama VHH against CXCL11; not shown: C-terminal c-myc tag and (His)6 tag coded by the vector) VHH: EVQLVESGGGLVQPGGSLRLSCAASGFTLDDYVIGWFRQAPGKEREGVSGISSSDGSTYYADSVKGRFTISRDNAKNTVYLQMNSLKPEDTAVYYCAAGMGVLRLWVLSKLSYDYWGQGTQVTVSS
Return: binds

Enquiry: For the binder Nanobody 11A1 (VHH, llama VHH against CXCL11; not shown: C-terminal c-myc tag and (His)6 tag coded by the vector) VHH: EVQLVESGGGLVQAGGSLRLSCAASGFTLDDYAIGWFRQAPGKEREGVSCISSIDGDTVYADSVKGRFTASSDNAKNTAYLQMNSLKPEDTAVYYCAAGQGLLTAQALRWESYDYWGQGTQVTVSS , what binding result is on record?
Return: binds
